- test protocol: small-molecule binders of probe aLefty1, primary screen, biochemical, small-molecule microarray, 635/667 nm fluorescence (AID 1153);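 note: score merges spot fluorescence with signal-to-noise ratio from the scanned slide images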
- test parameters: higher = more signal
Assign classes using reported composite z-score values and the ranges group A = under -0.05, group B = from -0.05 up to -0.006, group C = -0.006 and over, please.

Class label required: "O=C(NCc1ccccc1)[C@@]1(Cc2ccccc2)COC(c2ccc(OCCCO)cc2)=N1"
group C

Same for "COc1ccc([Si](C)(C)[C@@H]2[C@@H](CCO)O[C@]3(C(=O)N(Cc4ccccc4)c4ccccc43)[C@H]2C)cc1"
group B

Now this one: C=CCC(OC(C)=O)[C@@H]1[C@@H](N(Cc2cc3ccccc3o2)C(=O)c2ccc(C)cc2)c2cc(OCCCO)ccc2N1C(=O)c1ccc2ccccc2n1 (some centres undefined)
group B

What do you get for "CC(C)[Si]1(C(C)C)OCc2cc(C3CC3)nc(-c3ccccc3)c21" ?
group A

Try "CO[C@H]1COC(=O)CC=C[C@H](C)[C@@H](OC)COC(=O)CC=C[C@@H]1C" next.
group C

And then "CCOC(=O)C[C@H]1[C@H](OC(=O)c2cc3ccccc3oc2=O)[C@@H](NC(=O)C2CCCCC2)c2cc(OCCCO)ccc2N1C(=O)c1ccc2ccccc2n1" , what is it?
group A

Try the compound "C[C@@H]1CC[C@H]2C(=O)N3CCC[C@H]3C(=O)N2[C@H]1c1ccc(Br)cc1"
group A

Another compound to check: "Cc1ccc(N2C(=O)c3ccccc3[C@](C)(C(=O)O)[C@@H]2c2ccc(CO)cc2)nc1"
group A

Now the compound "CC(=O)NCCCC[C@@H]1NC(=O)[C@@H]2C[C@H](C(=O)NCc3ccc(F)cc3)[C@H](c3cccc(OCCO)c3)N2C1=O"
group C

Try the compound N#Cc1ccc(NN2C(C(O)c3ccc(I)cc3)C=CC3C(=O)N(c4ccccc4)C(=O)C32)cc1 (centres undefined)
group C

C=CCC(OC(C)=O)[C@@H]1[C@@H](N(Cc2cccc3ccccc23)C(=O)Cc2ccc(F)cc2)c2cc(OCCCO)ccc2N1C(=O)Cc1ccc2ccccc2c1 (some centres undefined) , same question.
group B

Subsequent entry: CN1CCC(CCCO)=CC1C1CC1 (centres undefined)
group A

Then what about the compound "COC(=O)C1=C(C)N(Cc2ccccc2)c2c(C(=O)OC)c(C(=O)OC)c(C(=O)OC)c(=O)n2[C@@H]1c1ccccc1" ?
group B

* * *

- target or test system: Alpha-bungarotoxin (Bungarus multicinctus) (UniProt P60615)
- Sequence (P60615 whole entry, looked up): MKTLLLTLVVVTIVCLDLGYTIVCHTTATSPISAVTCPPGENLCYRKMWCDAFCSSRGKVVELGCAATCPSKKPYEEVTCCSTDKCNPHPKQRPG
- test protocol: alpha-bungarotoxin binders on microarray, profiling panel, artefact control for SMM control protein annotation, biochemical, small-molecule microarray, Alexa647 label, 635/667 nm fluorescence (AID 1117)
- test parameters: alpha-BTX-A647 binding fluorescence, higher = more signal
Please note: criterion met applies when composite z-score is 0.5 or greater, and criterion not met applies otherwise.

Is it the case that "COc1cc([C@@H]2N[C@H](C(=O)O)Cc3c2[nH]c2ccccc32)cc(OC)c1OC" has composite z-score reaching or exceeding 0.5?
criterion not met

What do you get for "C[C@@H]1C=CCC(=O)OC[C@H]2O[C@@H](C=C[C@@H]2O)[C@H](C)C=CCC(=O)OC[C@H]2O[C@H]1C=C[C@@H]2O" ?
criterion not met

Do the same for "CCCC=C(CCC)[C@@H](NS(=O)(=O)c1ccc(C(F)(F)F)cc1)c1ccc(-c2ccccc2)cc1" please
criterion met

"O=C(CS)NCCCCCNC(=O)[C@H]1C[C@H]2C(=O)N[C@@H](Cc3ccccc3)C(=O)N2[C@H]1c1ccc(O)cc1" ?
criterion met

Same again, this time with C=CCC(OC(C)=O)[C@@H]1[C@@H](N(Cc2cccc3ccccc23)C(=O)c2ccc(C)cc2)c2cc(OCCCO)ccc2N1C(=O)c1ccc(-c2ccccc2)cc1 (some centres undefined)
criterion not met

Check C=CC[C@@]1(C(=O)NCC(O)CO)N=C(c2ccc(OCCCO)cc2)O[C@@H]1c1ccccc1CN=[N+]=[N-] (some centres undefined) too.
criterion not met

Also check C=CCC(OC(C)=O)[C@@H]1[C@@H](N(Cc2ccc(-c3ccccc3)cc2)C(=O)c2ccc(C)cc2)c2cc(OCCCO)ccc2N1C(=O)c1ccc(-c2ccccc2)cc1 (some centres undefined)
criterion met

Also "COc1cccc([C@@H]2[C@@H](C)CC[C@H]3C(=O)N4[C@H](c5cccc(OC)c5)[C@@H](C)CC[C@H]4C(=O)N23)c1" ?
criterion not met

Same thing, different compound: "CC(C)[Si]1(C(C)C)OCc2cc(C3CC3)nc(-c3ccccc3)c21"
criterion not met
